- TEST SYSTEM: Nanoluciferase-BRD9 fusion protein (3×FLAG-NLuc-BRD9) in SYO-1 cells (Homo sapiens, UniProt Q9H8M2)
- Construct: expressed in transfected cells; host or cells: SYO-1
- ASSAY COMMENT: SYO1 BRD9 NanoLuc degradation assay
- Assay type: cell-based
- APPLIED CONDITIONS: Table 6B; SYO-1 cells expressing 3×FLAG-NLuc-BRD9, 6 hours incubation, 1 μM top dose; read-out: SYO1 BRD9-NanoLuc degradation IC50
MEASUREMENT LABEL: DC50

>  <COMPOUND>
COc1cc(-c2cn(C)c(=O)c3cc(C(=O)NCC4CC5CN(CCCN6CCN(c7ccc8c(c7)C(=O)N(C7CCC(=O)NC7=O)C8=O)CC6)CC5C4)sc23)cc(OC)c1CN(C)C (stereo not shown)

>  <ENDPOINT RESULT>
< 10 nM

$$$$
>  <COMPOUND>
COc1cc(-c2cn(C)c(=O)c3cc(C(=O)NC4CCC45CCN(CCCN4CCN(c6ccc7c(c6)C(=O)N(C6CCC(=O)NC6=O)C7=O)CC4)CC5)sc23)cc(OC)c1CN(C)C (stereo not shown)

>  <ENDPOINT RESULT>
> 100 nM

$$$$
>  <COMPOUND>
COc1cc(-c2cn(C)c(=O)c3cc(C(=O)NC4CCN(C(=O)CN5CCC6(CC5)CN(c5ccc7c(c5)C(=O)N(C5CCC(=O)NC5=O)C7=O)C6)CC4(F)F)sc23)cc(OC)c1CN(C)C (stereo not shown)

>  <ENDPOINT RESULT>
< 10 nM

$$$$

Now look at this one.
Q: What measured DC50 goes with COc1cc(-c2cn(C)c(=O)c3cc(C(=O)NC4CCN(CCCN5CCN(c6ccc7c(c6)C(=O)N(C6CCC(=O)NC6=O)C7=O)CC5)CC4(F)F)sc23)cc(OC)c1CN(C)C (stereo not shown) ?
A: < 10 nM

----------
Readings of DC50 for the listed compounds
- TEST SYSTEM: Nanoluciferase-BRD9 fusion protein (3×FLAG-NLuc-BRD9) in SYO-1 cells (Homo sapiens, UniProt Q9H8M2)
- Construct: expressed in transfected cells; host or cells: SYO-1
- Sequence (Q9H8M2 1-597): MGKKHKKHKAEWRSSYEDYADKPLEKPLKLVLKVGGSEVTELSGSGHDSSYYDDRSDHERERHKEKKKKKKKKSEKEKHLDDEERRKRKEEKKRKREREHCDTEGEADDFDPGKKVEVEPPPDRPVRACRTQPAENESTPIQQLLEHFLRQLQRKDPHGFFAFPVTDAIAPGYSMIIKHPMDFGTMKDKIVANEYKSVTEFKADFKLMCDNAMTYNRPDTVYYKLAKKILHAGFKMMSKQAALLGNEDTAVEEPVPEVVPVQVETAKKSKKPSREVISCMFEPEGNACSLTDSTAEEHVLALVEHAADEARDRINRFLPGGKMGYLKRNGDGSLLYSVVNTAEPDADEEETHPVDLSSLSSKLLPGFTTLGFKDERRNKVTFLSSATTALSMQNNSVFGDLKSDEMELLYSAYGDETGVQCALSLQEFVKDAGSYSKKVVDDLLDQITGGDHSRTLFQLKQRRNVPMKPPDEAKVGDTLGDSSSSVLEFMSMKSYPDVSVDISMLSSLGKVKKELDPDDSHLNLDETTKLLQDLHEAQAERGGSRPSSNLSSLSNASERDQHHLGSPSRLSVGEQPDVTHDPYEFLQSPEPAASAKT
- ASSAY COMMENT: SYO1 BRD9 NanoLuc degradation assay
- Assay type: cell-based
- APPLIED CONDITIONS: Table 6B; SYO-1 cells expressing 3×FLAG-NLuc-BRD9, 6 hours incubation, 1 μM top dose; read-out: SYO1 BRD9-NanoLuc degradation IC50

Here is how some compounds turned out for DC50.
>  <COMPOUND>
COc1cc(-c2cn(C)c(=O)c3cc(C(=O)NCC4CC45CCN(C(=O)CCN4CCN(c6ccc7c(c6)C(=O)N(C6CCC(=O)NC6=O)C7=O)CC4)CC5)sc23)cc(OC)c1CN(C)C (centres unmarked)

>  <ENDPOINT RESULT>
> 10 nM

$$$$
>  <COMPOUND>
COc1cc(-c2cn(C)c(=O)c3cc(C(=O)NCC4CCN(CCCCOc5cccc6c5C(=O)N(C5CCC(=O)NC5=O)C6=O)CC4)sc23)cc(OC)c1CN(C)C (centres unmarked)

>  <ENDPOINT RESULT>
> 100 nM

$$$$
>  <COMPOUND>
COc1cc(-c2cn(C)c(=O)c3cc(C(=O)NC4CCCN(CCCCCOc5cccc6c5C(=O)N(C5CCC(=O)NC5=O)C6=O)CC4)sc23)cc(OC)c1CN(C)C (centres unmarked)

>  <ENDPOINT RESULT>
> 10 nM

$$$$

Q: Given the compound COc1cc(-c2cn(C)c(=O)c3cc(C(=O)NCC4CC5(CCN(C(=O)CCN6CCN(c7ccc8c(c7)C(=O)N(C7CCC(=O)NC7=O)C8=O)CC6)CC5)O4)sc23)cc(OC)c1CN(C)C (centres unmarked) , what is its reported DC50?
A: > 100 nM

Q: What do you have for COc1cc(-c2cn(C)c(=O)c3cc(C(=O)NC4CCC5(CCN(C(=O)CCN6CCN(c7ccc8c(c7)C(=O)N(C7CCC(=O)NC7=O)C8=O)CC6)C5)C4)sc23)cc(OC)c1CN(C)C (centres unmarked) ?
A: > 10 nM

Q: Try this compound too: COc1cc(-c2cn(C)c(=O)c3cc(C(=O)NC4CC5CC4CN5CCCN4CCN(c5ccc6c(c5)C(=O)N(C5CCC(=O)NC5=O)C6=O)CC4)sc23)cc(OC)c1CN(C)C (centres unmarked)
A: > 10 nM

----------
- TEST SYSTEM: BRD9 bromodomain (Flag-BRD9 P133-K239; Swiss Prot Q9H8M2) (Homo sapiens)
- Construct: His-Flag-BRD9 (P133-K239); Swiss Prot Q9H8M2; His6 with TEV site (mgsshhhhhhenlyfq/) (N, cleaved yes)
- Sequence (Q9H8M2 133-239): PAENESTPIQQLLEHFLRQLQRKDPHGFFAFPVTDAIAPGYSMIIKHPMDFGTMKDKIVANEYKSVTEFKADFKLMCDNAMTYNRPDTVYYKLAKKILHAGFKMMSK
- ASSAY COMMENT: BRD9 bromodomain TR-FRET competition binding assay
- APPLIED CONDITIONS: 3 nM Flag-BRD9, 3.75 nM biotinylated ligand, 90 minutes at room temperature
pIC50: −log10 of the molar value.
Recorded measurements of pIC50, one per entry

Record excerpt, results attached:
>  <COMPOUND>
COc1cc(-c2cn(C)c(=O)c3cc(C(=O)NC4CCN(CCCCCOc5cccc6c5C(=O)N(C5CCC(=O)NC5=O)C6=O)CC4(F)F)sc23)cc(OC)c1CN(C)C (stereo not drawn) [Compound D13]

>  <pIC50>
> 8.00

$$$$
>  <COMPOUND>
COc1cc(-c2cn(C)c(=O)c3cc(NC(=O)C4CCN(C(=O)CCCCOc5cccc6c5C(=O)N(C5CCC(=O)NC5=O)C6=O)CC4)sc23)cc(OC)c1CN(C)C (stereo not drawn) [Compound D12]

>  <pIC50>
> 8.00

$$$$

Now take the following compound into account.
Q: Which value of pIC50 has been reported for Cn1cc(-c2cccc(C(F)(F)F)c2)c2sc(C(=N)NC3CCS(=O)(=O)NC3)cc2c1=O (stereo not drawn) [Compound B1] in the records?
A: < 8.00

----------
- TEST SYSTEM: BRD9 bromodomain (Flag-BRD9 P133-K239; Swiss Prot Q9H8M2) (Homo sapiens, UniProt Q9H8M2)
- Construct: His-Flag-BRD9 (P133-K239); Swiss Prot Q9H8M2; His6 with TEV site (mgsshhhhhhenlyfq/) (N, cleaved yes)
- ASSAY COMMENT: BRD9 bromodomain TR-FRET competition binding assay
- APPLIED CONDITIONS: 3 nM Flag-BRD9, 3.75 nM biotinylated ligand, 90 minutes at room temperature
MEASUREMENT LABEL: IC50

Solved entries:
>  <COMPOUND>
COc1cc(-c2cn(C)c(=O)c3cc(C(=O)NC4CCN(C)CC4)sc23)cc(OC)c1CN(C)C

>  <IC50>
< 10 nM

$$$$
>  <COMPOUND>
COc1cc(-c2cn(C)c(=O)c3cc(NC(=O)C4CCCN(CCCCCOc5cccc6c5C(=O)N(C5CCC(=O)NC5=O)C6=O)C4)sc23)cc(OC)c1CN(C)C (stereo not drawn)

>  <IC50>
> 10 nM

$$$$
>  <COMPOUND>
COc1ccc(-c2cn(C)c(=O)c3cc(-c4ncc[nH]4)sc23)cc1OC

>  <IC50>
> 10 nM

$$$$

Q: Consider the compound COc1cc(-c2cn(C)c(=O)c3cc(C(=O)NC4CCN(CCCCCOc5cccc6c5C(=O)N(C5CCC(=O)NC5=O)C6=O)CC4)sc23)cc(OC)c1CN(C)C (stereo not drawn) and give its measured IC50.
A: < 10 nM

Q: Here is the next compound: `COc1cc(-c2cn(C)c(=O)c3cc(C(=N)NC4CCS(=O)(=O)CC4)sc23)ccc1OCC(=O)O`
A: > 10 nM

Q: What do you have for COc1cc(-c2cn(C)c(=O)c3cc(C(=N)NC4CCS(=O)(=O)CC4)sc23)ccc1OCC(=O)NCCCCCCCCNc1cccc2c1CN(C1CCC(=O)NC1=O)C2=O (stereo not drawn) [Compound D2] ?
A: < 10 nM
